These measurements were taken from the Human Domainome abundance scans (Beltran et al. 2025).

Items are presented alongside their recorded abundance fitness.
B1: Transcription intermediary factor 1-beta, residues 620 to 671; numbered along this chain, Q13263 (parent)
chain: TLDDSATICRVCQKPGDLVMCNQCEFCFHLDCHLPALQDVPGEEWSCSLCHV

Variants of: B1
Experiment: abundance fitness (aPCA) (normalised: wild type 0, dead -1); higher = more abundant; growth selection in yeast, the domain comes from the species named
Settings: Homo sapiens
OBSERVATION_TYPE: abundance fitness

[[record]]
mut = "C32E"
result_value = -0.871

[[record]]
mut = "C24H"
result_value = -1.01

[[record]]
mut = "F26I"
result_value = -0.812

[[record]]
mut = "V11C"
result_value = -0.39

[[record]]
mut = "C47G"
result_value = -0.33

[[record]]
mut = "F26R"
result_value = -0.045

[[record]]
mut = "C9S"
result_value = -0.848

[[record]]
mut = "S46A"
result_value = 0.128

[[record]]
mut = "L37R"
result_value = -0.106

[[record]]
mut = "M20W"
result_value = -0.73

[[record]]
mut = "Q13N"
result_value = 0.128

[[record]]
mut = "C47S"
result_value = -0.343

[[record]]
mut = "E43V"
result_value = -0.165

[[record]]
mut = "F26T"
result_value = -0.563

[[record]]
mut = "E44T"
result_value = -0.164

[[record]]
mut = "Q13M"
result_value = -0.002

[[record]]
mut = "Q23D"
result_value = -0.234

[[record]]
mut = "L49N"
result_value = 0.46

[[record]]
mut = "D31C"
result_value = -0.709

[[record]]
mut = "S46I"
result_value = -0.01

[[record]]
mut = "L37N"
result_value = -0.334

[[record]]
mut = "A36D"
result_value = -0.394

[[record]]
mut = "L49G"
result_value = 0.334

[[record]]
mut = "T7N"
result_value = -0.176

[[record]]
mut = "L37K"
result_value = -0.421

[[record]]
mut = "G16C"
result_value = -1.11

[[record]]
mut = "C47R"
result_value = -0.552

[[record]]
mut = "F26K"
result_value = 0.155

[[record]]
mut = "C50P"
result_value = 0.037

[[record]]
mut = "W45T"
result_value = -0.54

[[record]]
mut = "D31P"
result_value = -0.175

